Recorded IC50, one value per entry.
Target: HLE (Homo sapiens)
Construct: Purified elastase from human white blood cells
Assay: Enzyme assay for inhibition of HLE (human leukocyte elastase)
Settings: purified elastase from human white blood cells, 10 nM; 10 minute preincubation; 0.35 mM MeO-succinyl-L-alanyl-L-alanyl-L-prolyl-L-valine-p-nitroanilide; pH 7.6; 10% dimethylsulfoxide; 410 nm; read-out: IC50 values against HLE
assay-readout: IC50 (nM)

• CO[C@H]1C(=O)N2C(C(=O)N3CCN(C)CC3)=C(C)C3(CC34CCCCC4)S(=O)(=O)C12 (stereo partly shown) [Compound 7] = 6.4
• CO[C@H]1C(=O)N2C(C(=O)N3CCN(C)CC3)=C(C)C3(CC34CCCC4)S(=O)(=O)C12 (stereo partly shown) [drawing 6] = 27.3
• CO[C@H]1C(=O)N2C(C(=O)OC(C)(C)C)=C(COC(C)=O)C3(CC34CCCC4)S(=O)(=O)C12 (stereo partly shown) [Compound 11] = 9.1
• CO[C@H]1C(=O)N2C(C(=O)N3CCN(CC(=O)OC(C)(C)C)CC3)=C(C)C3(CC34CCCCC4)S(=O)(=O)C12 (stereo partly shown) [Compound 8] = 8.37
• COC1C(=O)N2C(C(=O)N(C)CC(=O)O)=C(C)C3(CC34CCCC4)S(=O)(=O)C12 (stereo not shown) [Compound 23] = 75
• CO[C@H]1C(=O)N2C(C(=O)OC(C)(C)C)=C(CSc3nnc(C)s3)C3(CC34CCCC4)S(=O)(=O)C12 (stereo partly shown) [Compound 15] = 10.3
• CO[C@H]1C(=O)N2C(C(=O)OC(C)(C)C)=C(CSc3nnnn3C)C3(CC34CCCC4)S(=O)(=O)C12 (stereo partly shown) [Compound 14] = 15.3

###

Molecular target: HLE (Homo sapiens)
Construct: Purified elastase from human white blood cells
Assay: Enzyme assay for inhibition of HLE (human leukocyte elastase)
Settings: purified elastase from human white blood cells, 10 nM; 10 minute preincubation; 0.35 mM MeO-succinyl-L-alanyl-L-alanyl-L-prolyl-L-valine-p-nitroanilide; pH 7.6; 10% dimethylsulfoxide; 410 nm; read-out: IC50 values against HLE
Recorded log10(IC50), one value per entry.
assay-readout: log10(IC50) (log10 of the value in nM)

- CON=C(C)C1=C(C)C2(CC23CCCC3)S(=O)(=O)C2[C@@H](OC)C(=O)N12 (stereo partly shown): 1.91
- CC1=C(C(=O)OC(c2ccccc2)c2ccccc2)N2C(=O)CC2S(=O)(=O)C12CC21CCCC1 (stereo not shown): 2.68
- CO[C@H]1C(=O)N2C(C(=O)N3CCC(C(=O)O)CC3)=C(C)C3(CC34CCCC4)S(=O)(=O)C12 (stereo partly shown): 1.76
- CO[C@H]1C(=O)N2C(C(=O)N3CCN(C)CC3)=C(C)C3(CC34CCCCC4)S(=O)(=O)C12 (stereo partly shown) [Compound 10]: 0.92
- CO[C@H]1C(=O)N2C(C(=O)N3CCN(C)CC3)=C(C)C3(CC34CCCC4)S(=O)(=O)C12 (stereo partly shown) [Compound 3]: 1.39
- CO[C@H]1C(=O)N2C(C(=O)N3CCC(C(=O)O)CC3)=C(CSc3nc(=O)c(O)nn3C)C3(CC34CCCC4)S(=O)(=O)C12 (stereo partly shown): 1.53
- CO[C@H]1C(=O)N2C(C(=O)N3CCN(CC(=O)O)CC3)=C(C)C3(CC34CCCC4)S(=O)(=O)C12 (stereo partly shown): 2.14

###

Target: HLE (Homo sapiens, UniProt P08246)
Construct: Purified elastase from human white blood cells
Sequence (P08246 30-247 limits assumed): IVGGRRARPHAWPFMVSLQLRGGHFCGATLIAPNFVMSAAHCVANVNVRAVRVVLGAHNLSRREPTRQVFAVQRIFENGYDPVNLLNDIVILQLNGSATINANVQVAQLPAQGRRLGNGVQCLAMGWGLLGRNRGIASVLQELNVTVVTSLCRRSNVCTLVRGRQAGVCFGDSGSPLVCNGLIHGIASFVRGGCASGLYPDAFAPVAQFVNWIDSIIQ
Experiment: Enzyme assay for inhibition of HLE (human leukocyte elastase)
Conditions: purified elastase from human white blood cells, 10 nM; 10 minute preincubation; 0.35 mM MeO-succinyl-L-alanyl-L-alanyl-L-prolyl-L-valine-p-nitroanilide; pH 7.6; 10% dimethylsulfoxide; 410 nm; read-out: IC50 values against HLE
Recorded IC50, one value per entry.
assay-readout: IC50 (µM)

- CC1=C(C(=O)N2CCC(C(=O)OC(C)(C)C)CC2)N2C(=O)CC2S(=O)(=O)C12CC21CCCC1 (stereo not shown): 0.87
- CO[C@H]1C(=O)N2C(C(=O)N3CCCCC3)=C(CSc3nc(=O)c(O)nn3C)C3(CC34CCCC4)S(=O)(=O)C12 (stereo partly shown): 0.0324
- CO[C@H]1C(=O)N2C(C(=O)N3CCN(CC(=O)O)CC3)=C(C)C3(CC34CCCCC4)S(=O)(=O)C12 (stereo partly shown): 0.027
- CO[C@H]1C(=O)N2C(C(=O)c3ccccc3)=C(C)C3(CC34CCCC4)S(=O)(=O)C12 (stereo partly shown): 0.0039

###

Biological target: HLE (Homo sapiens)
Construct: Purified elastase from human white blood cells
Sequence (P08246 30-247 limits assumed): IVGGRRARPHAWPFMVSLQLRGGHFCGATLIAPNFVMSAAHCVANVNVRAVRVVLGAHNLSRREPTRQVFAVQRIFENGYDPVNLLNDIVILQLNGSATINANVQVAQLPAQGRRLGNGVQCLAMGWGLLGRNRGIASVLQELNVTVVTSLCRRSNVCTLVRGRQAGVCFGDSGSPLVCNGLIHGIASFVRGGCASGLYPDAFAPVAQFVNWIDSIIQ
Experiment: Enzyme assay for inhibition of HLE (human leukocyte elastase)
Conditions: purified elastase from human white blood cells, 10 nM; 10 minute preincubation; 0.35 mM MeO-succinyl-L-alanyl-L-alanyl-L-prolyl-L-valine-p-nitroanilide; pH 7.6; 10% dimethylsulfoxide; 410 nm; read-out: IC50 values against HLE
assay-readout: IC50

• CO[C@H]1C(=O)N2C(C(=O)OC(C)(C)C)=C(CSc3nc(=O)c(O)nn3C)C3(CC34CCCC4)S(=O)(=O)C12 (stereo partly shown) [Compound 12] = 15 nM
• CO[C@H]1C(=O)N2C(C(=O)N3CCC(C(N)=O)CC3)=C(C)C3(CC34CCCC4)S(=O)(=O)C12 (stereo partly shown) [Compound 20] = 8.4 nM
• CO[C@H]1C(=O)N2C(C(=O)OC(C)(C)C)=C(CSc3ccccn3)C3(CC34CCCC4)S(=O)(=O)C12 (stereo partly shown) [Compound 13] = 9.4 nM
• CO[C@H]1C(=O)N2C(C(C)=O)=C(C)C3(CC34CCCC4)S(=O)(=O)C12 (stereo partly shown) [Compound 18] = 10.7 nM
